Test system: HOP-62 NSCLC
Experiment: NCI-60 one-dose screen, 48 h
Conditions: 10 µM unless noted
Experimental: Growth inhibition of the HOP-62 human Non-Small Cell Lung tumor cell line is measured as a screen for anti-cancer activity. Cells are grown in 96 well plates and exposed to the test compound for 48 hours. Compounds are tested at a single concentration, which is 10^-5 M for most compounds. The reported endpoint is percent growth (GI% or GIPRCNT), where numbers from 0 - 100% represent growth inhibition, and numbers from -100% - 0 represent cell death. […]
Compounds without any hit were thinned out: in the full panel of roughly 83,000, 20% have a hit. The source made the active and inactive calls. Rule for the calls: active = growth percent below 10; inactive = the rest.
Respond with a class label; see T = active, F = inactive

Would you please look over these solved cases?
1) COC(=O)C1(C)CCC[C@]2(C)[C@H]3C[C@H]4C(C(C)C)=C[C@]3(CC[C@@H]12)[C@H]1[C@@H]4[C@@H](OC(=O)c2ccco2)CC[C@@H]1OC(=O)c1ccco1 (stereo partly drawn) : F
2) Nc1cc(-c2c[nH]c3ccc(Br)cc23)nc2cc(-c3c[nH]c4ccc(Br)cc34)nn12 : F
3) Nc1ncc(-c2ccc3ncnc(N4CCc5cc(F)c(Cl)cc54)c3c2)cn1 : F
4) O=S(=O)(NCCNc1nccc(-n2cnc3ccccc32)n1)c1ccc(Br)cc1 : F
5) Oc1ccc(CSc2nnc(-c3ccc(Cl)cc3)n2-c2ccccc2)c2cccnc12 : F

IN: Tell me the recorded outcome of this test for `COc1cc(OC)cc(C(=O)Nc2cccc(C#Cc3cccc4[nH]nc(N)c34)c2)c1` .
OUT: F

IN: Same lookup for `COc1cc(-c2nn(C(C)(C)C)cc2-c2ccnc(NCCCNS(=O)(=O)c3cccc(F)c3)n2)ccc1Cl` , please.
OUT: F

IN: Now the compound `COc1ccccc1-n1cc(C#N)c(N)c1C(=O)c1ccc(Cl)cc1`
OUT: F

IN: Also, `Cc1ccc(C2=Nn3c(nnc3-c3ccccc3)SC2)cc1` please.
OUT: F

IN: Same question for `CC/C(=C/c1cc(OC)ccc1O)c1ccc2cc(OC)ccc2[o+]1` please.
OUT: F

IN: Another compound to look at: `Cc1cc(C)cc(C(=O)Nc2cccc(C#Cc3cccc4[nH]nc(N)c34)c2)c1`
OUT: F
